Test: Inhibition of guinea pig liver transglutaminase 2 using N-Cbz-Glu(gamma-p-nitrophenylester)Gly (AL5) substrate measured over 10 mins by UV-visible spectrophotometry
Parameters: species or system Cavia porcellus
Can you tell me pIC50 for the items I'm about to list?
Please express pIC50 as -log10 of the molar concentration.

Query string: May I ask what pIC50 has been recorded for "O=C(/C=C/c1ccc([N+](=O)[O-])cc1)c1cn(Cc2ccc([N+](=O)[O-])cc2)nn1" ?
Result string: 5.68

Query string: May I ask what pIC50 has been recorded for "O=C(/C=C/c1ccc([N+](=O)[O-])cc1)n1nnc2ccccc21" ?
Result string: 4.13

----------
Target: Protein-glutamine gamma-glutamyltransferase (Homo sapiens, UniProt P21980)
Sequence (P21980 whole entry): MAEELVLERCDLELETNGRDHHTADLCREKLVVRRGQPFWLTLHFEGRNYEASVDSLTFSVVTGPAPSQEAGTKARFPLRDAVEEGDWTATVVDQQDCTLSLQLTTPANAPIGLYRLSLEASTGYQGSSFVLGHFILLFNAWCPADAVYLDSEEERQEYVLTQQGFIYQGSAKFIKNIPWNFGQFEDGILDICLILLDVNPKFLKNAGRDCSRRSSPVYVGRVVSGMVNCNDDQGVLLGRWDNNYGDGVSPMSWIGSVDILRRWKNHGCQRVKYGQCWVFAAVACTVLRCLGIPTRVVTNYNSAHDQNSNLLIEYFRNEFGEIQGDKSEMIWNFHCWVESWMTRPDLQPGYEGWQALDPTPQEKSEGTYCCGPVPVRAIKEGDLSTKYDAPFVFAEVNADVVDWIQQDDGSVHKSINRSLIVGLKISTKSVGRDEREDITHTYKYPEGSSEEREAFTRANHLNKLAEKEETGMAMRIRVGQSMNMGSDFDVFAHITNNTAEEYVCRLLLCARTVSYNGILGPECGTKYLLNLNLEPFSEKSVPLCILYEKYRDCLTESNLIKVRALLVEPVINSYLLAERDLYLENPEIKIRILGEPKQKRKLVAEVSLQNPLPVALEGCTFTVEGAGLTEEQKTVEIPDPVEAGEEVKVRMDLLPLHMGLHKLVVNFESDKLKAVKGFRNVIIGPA
Assay: Inhibition of human transglutaminase 2
experimental-endpoint: IC50 (µM)
Respond numerically; units are µM and should not be typed.

Query string: May I ask what IC50 has been recorded for "O=C(/C=C/c1cccc([N+](=O)[O-])c1)c1cccnc1" ?
Result string: 19.6

----------
Biological target: Protein-glutamine gamma-glutamyltransferase (Homo sapiens, UniProt P21980)
Experiment: Inhibition of human transglutaminase 2
experimental-endpoint: Ki
Form entry: enter the amount, then its unit.

Query string: Query for Protein-glutamine gamma-glutamyltransferase (Homo sapiens, UniProt P21980): what Ki does the record show for "O=C(/C=C/c1cccc([N+](=O)[O-])c1)c1cccnc1" ?
Result string: 4 µM

----------
Assay: Inhibition of guinea pig liver transglutaminase 2
Design: species or system Cavia porcellus
experimental-endpoint: pIC50
Please express pIC50 as -log10 of the molar concentration.

Query string: May I ask what pIC50 has been recorded for "O=C(/C=C/c1ccc([N+](=O)[O-])cc1)c1cccnc1" ?
Result string: 4.68

Query string: May I ask what pIC50 has been recorded for "O=C(/C=C/c1cccc([N+](=O)[O-])c1)c1cccnc1" ?
Result string: 5.52

Query string: May I ask what pIC50 has been recorded for "O=C(/C=C/c1ccc([N+](=O)[O-])cc1)n1nnc2ccccc21" ?
Result string: 4.13

----------
Target: Protein-glutamine gamma-glutamyltransferase (Homo sapiens)
Test: Competitive inhibition of human transglutaminase 2 using N-Cbz-Glu(gamma-p-nitrophenylester)Gly (AL5) substrate measured over 10 mins by UV-visible spectrophotometry based Michaelis-Menten analysis
experimental-endpoint: Ki (µM)
Respond numerically; units are µM and should not be typed.

Query string: May I ask what Ki has been recorded for "O=C(C#Cc1ccc([N+](=O)[O-])cc1)c1cn(Cc2ccc([N+](=O)[O-])cc2)nn1" ?
Result string: 0.42

Query string: May I ask what Ki has been recorded for "O=C(c1cn(Cc2ccc([N+](=O)[O-])cc2)nn1)c1cn(Cc2ccc([N+](=O)[O-])cc2)nn1" ?
Result string: 9.9

----------
Target: Protein-glutamine gamma-glutamyltransferase (Homo sapiens, UniProt P21980)
Assay: Inhibition of human transglutaminase 2 using N-Cbz-Glu(gamma-p-nitrophenylester)Gly (AL5) substrate measured over 10 mins by UV-visible spectrophotometry
Conditions: read-out: IC50
experimental-endpoint: log10 of IC50 (log10 of the value in µM)
Note: values are log10 of IC50 expressed in µM.

Query string: Query for Protein-glutamine gamma-glutamyltransferase (Homo sapiens, UniProt P21980): what log10 of IC50 does the record show for "O=C(c1cc2cc([N+](=O)[O-])ccc2oc1=O)n1nnc2ccccc21" ?
Result string: 2.16

Query string: Query for Protein-glutamine gamma-glutamyltransferase (Homo sapiens, UniProt P21980): what log10 of IC50 does the record show for "O=C(c1cccnc1)[C@H]1C[C@@H]1c1cccc([N+](=O)[O-])c1" ?
Result string: 2.17

Query string: Query for Protein-glutamine gamma-glutamyltransferase (Homo sapiens, UniProt P21980): what log10 of IC50 does the record show for "O=C(C#Cc1ccc([N+](=O)[O-])cc1)c1cn(Cc2ccccc2)nn1" ?
Result string: -0.21

Query string: Query for Protein-glutamine gamma-glutamyltransferase (Homo sapiens, UniProt P21980): what log10 of IC50 does the record show for "O=C(c1cn(Cc2ccc([N+](=O)[O-])cc2)nn1)c1cn(Cc2ccc(C(F)(F)F)cc2)nn1" ?
Result string: 1.41

Query string: Query for Protein-glutamine gamma-glutamyltransferase (Homo sapiens, UniProt P21980): what log10 of IC50 does the record show for "O=C(C#Cc1ccc([N+](=O)[O-])cc1)c1cn(Cc2ccc([N+](=O)[O-])cc2)nn1" ?
Result string: -0.10

Query string: Query for Protein-glutamine gamma-glutamyltransferase (Homo sapiens, UniProt P21980): what log10 of IC50 does the record show for "O=C(c1cn(Cc2ccc([N+](=O)[O-])cc2)nn1)c1cn(Cc2ccccc2[N+](=O)[O-])nn1" ?
Result string: 1.81

Query string: Query for Protein-glutamine gamma-glutamyltransferase (Homo sapiens, UniProt P21980): what log10 of IC50 does the record show for "O=C(C#Cc1ccc([N+](=O)[O-])cc1)n1nnc2ccccc21" ?
Result string: 0.41

Query string: Query for Protein-glutamine gamma-glutamyltransferase (Homo sapiens, UniProt P21980): what log10 of IC50 does the record show for O=[N+]([O-])c1cccc(/C=C/C2(c3cccnc3)CO2)c1 (stereo not drawn) ?
Result string: 2.18

Query string: Query for Protein-glutamine gamma-glutamyltransferase (Homo sapiens, UniProt P21980): what log10 of IC50 does the record show for "O=C(c1cn(Cc2ccc([N+](=O)[O-])cc2)nn1)c1cn(Cc2ccc([N+](=O)[O-])cc2)nn1" ?
Result string: 1.15

Query string: Query for Protein-glutamine gamma-glutamyltransferase (Homo sapiens, UniProt P21980): what log10 of IC50 does the record show for "O=C(/C=C/c1cccc([N+](=O)[O-])c1)c1cccnc1" ?
Result string: 1.29
